assay: Concentration in brain extracts after single i.v. bolus; assay type: in vivo, Sprague-Dawley rats; settings: male, Sprague-Dawley, rat, brain, intravenous, 1 mg/kg, anatabine 1.0 mg/kg i.v., 6 hr, Male; read-out: Mean concentration in rat brain extracts
measured-endpoint: concentration at 6 h (ng/g)
The figure you give is taken to be in ng/g; do not add the unit.

# concentration at 6 h lookup, item C1=CCC(c2cccnc2)NC1 (racemic) [Anatabine, 1,2,3,6-tetrahydro-[2,3′]bipyridinyl]
5

---

test: Plasma toxicokinetics after single i.v. bolus; format: in vivo, Sprague-Dawley rats; settings: male, Sprague-Dawley, rat, plasma, iv, 0.75 mg/kg
measured-endpoint: AUC(0-inf) (ng·h/mL)
The figure you give is taken to be in ng·h/mL; do not add the unit.

# AUC(0-inf) lookup, item C1=CCC(c2cccnc2)NC1 (racemic) [Anatabine, 1,2,3,6-tetrahydro-[2,3′]bipyridinyl]
464

---

experiment: Plasma toxicokinetics after single i.v. bolus; type: in vivo, Sprague-Dawley rats; conditions: female, Sprague-Dawley, rat, plasma, intravenous, 1 mg/kg, Anatabine 1.0 mg/kg; female; 0.5 hr (1st 0.5 hr line); read-out: Avg. Conc. rat plasma
measured-endpoint: concentration at 0.5 h (ng/mL)
The figure you give is taken to be in ng/mL; do not add the unit.

# concentration at 0.5 h lookup, item C1=CCC(c2cccnc2)NC1 (racemic) [Anatabine, 1,2,3,6-tetrahydro-[2,3′]bipyridinyl]
237

---

experiment: Plasma toxicokinetics after single i.v. bolus; format: in vivo, Sprague-Dawley rats; details: both sexes, Sprague-Dawley, rat, plasma, intravenous, 0.75 mg/kg, Anatabine 0.75 mg/kg; male and female; 4 hr; read-out: Avg. Conc. rat plasma, combined male and female
measured-endpoint: concentration at 4 h (ng/mL)
The figure you give is taken to be in ng/mL; do not add the unit.

# concentration at 4 h lookup, item C1=CCC(c2cccnc2)NC1 (racemic) [Anatabine, 1,2,3,6-tetrahydro-[2,3′]bipyridinyl]
40

---

experiment: Plasma toxicokinetics after single i.v. bolus; assay type: in vivo, Sprague-Dawley rats; conditions: both sexes, Sprague-Dawley, rat, plasma, intravenous, 0.1 mg/kg, Anatabine 0.1 mg/kg; male and female; 6 hr (1st 6 hr line), n=6; read-out: Avg. Conc. rat plasma, combined male and female
measured-endpoint: concentration at 6 h
Respond with a number, then the unit of measure.

# concentration at 6 h lookup, item C1=CCC(c2cccnc2)NC1 (racemic) [Anatabine, 1,2,3,6-tetrahydro-[2,3′]bipyridinyl]
4.3 ng/mL

---

assay: Concentration in brain extracts after single i.v. bolus; format: in vivo, Sprague-Dawley rats; details: female, Sprague-Dawley, rat, brain, intravenous, 0.1 mg/kg, Anatabine 0.1 mg/kg; female; 24 hr; read-out: Avg. Conc. rat brain
measured-endpoint: concentration at 24 h (ng/g)
The figure you give is taken to be in ng/g; do not add the unit.

# concentration at 24 h lookup, item C1=CCC(c2cccnc2)NC1 (racemic) [Anatabine, 1,2,3,6-tetrahydro-[2,3′]bipyridinyl]
2

---

assay: Concentration in brain extracts after single i.v. bolus; format: in vivo, Sprague-Dawley rats; conditions: female, Sprague-Dawley, rat, brain, intravenous, 0.1 mg/kg, anatabine 0.1 mg/kg i.v., 0.5 hr, Female; read-out: Mean concentration in rat brain extracts
measured-endpoint: concentration at 0.5 h
Respond with a number, then the unit of measure.

# concentration at 0.5 h lookup, item C1=CCC(c2cccnc2)NC1 (racemic) [Anatabine, 1,2,3,6-tetrahydro-[2,3′]bipyridinyl]
29.7 ng/g
